Assay System: T1, recombinant cyno ENTPD2 extracellular domain (residues 29-462) with C-terminal Avi-His6 tag (cynomolgus macaque, UniProt Q9Y5L3 29-462 (human entry))
T1 construct: also called cynomologus (cyno) ENTPD2 ECD
T1 chain (part 1 of 2): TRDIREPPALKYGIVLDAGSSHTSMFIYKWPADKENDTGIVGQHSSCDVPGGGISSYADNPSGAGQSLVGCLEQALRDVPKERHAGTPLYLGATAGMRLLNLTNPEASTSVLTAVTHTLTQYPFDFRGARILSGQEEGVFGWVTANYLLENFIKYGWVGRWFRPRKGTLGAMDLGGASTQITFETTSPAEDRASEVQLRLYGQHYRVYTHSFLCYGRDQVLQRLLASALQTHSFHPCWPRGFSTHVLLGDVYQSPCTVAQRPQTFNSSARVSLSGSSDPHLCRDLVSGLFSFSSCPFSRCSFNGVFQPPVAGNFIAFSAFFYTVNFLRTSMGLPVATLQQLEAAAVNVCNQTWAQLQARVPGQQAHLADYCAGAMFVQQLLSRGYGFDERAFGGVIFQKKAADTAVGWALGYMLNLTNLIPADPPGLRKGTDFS
T1 chain (part 2 of 2): HHHHHH
Method Description: SPR Biacore, mAb captured, ECD analyte, 25C
Provide the recorded pKd for the entries that follow.
Numbers only, as −log10 of the molar value.

INSERT INTO measurements (binder, value_type, quantitative_readout) VALUES
  ('ANTI-HUMAN ENTPD2 MAB10 (antibody, human IgG1, lambda, V domains shown, also called Anti-ENTPD2 mAb10) VH: QVQLVQSGAEVKKPGSSVKVSCKASGGTFDSYAVSWVRQAPGQGLEWMGRIVPWLGFTRYAQKFQGRVTITADESTSTAYMELSSLRSEDTAVYYCARESPGYRYSFDVWDQGTLVTVSS VL: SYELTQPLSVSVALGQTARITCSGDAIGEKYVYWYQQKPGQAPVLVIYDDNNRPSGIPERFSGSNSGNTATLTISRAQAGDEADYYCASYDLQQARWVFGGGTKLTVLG', 'pKd', 7.82);

Okay, here is my list. What is pKd for each of these?
1. ANTI-HUMAN ENTPD2 MAB5 (antibody, human IgG1, kappa, V domains shown, humanized and optimized from mAb16; human IgG1, kappa; also called Anti-ENTPD2 mAb5) VH: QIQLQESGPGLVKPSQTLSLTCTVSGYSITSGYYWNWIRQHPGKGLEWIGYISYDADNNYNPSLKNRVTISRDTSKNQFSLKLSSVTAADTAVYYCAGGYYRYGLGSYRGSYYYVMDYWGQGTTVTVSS VL: ETVLTQSPATLSVSPGERATISCKASQSVDYDGNSYMNWYQQKPGQAPRLLIYAASNLESGIPARFSGSGSGTDFTLTISSVEPEDAATYYCQQSNEDPPTFGGGTKLEIKR
2. ANTI-HUMAN ENTPD2 MAB3 (antibody, human IgG1, kappa, V domains shown, humanized from mAb17; human IgG1, kappa; also called Anti-ENTPD2 mAb3) VH: QVQLVQSGAEVVKPGASVKISCKASGYTFTDYNMDWVKQAPGQRLEWIGDINPKYDISTYNQQFKGKATITVDTSASTAYMELSSLRSEDTAVYYCARRGFFLYYGINYYYFDVWGQGTLVTVSS VL: EIVLTQSPATLSASPGERITLSCSASSSVSYIHWYQQKPGQAPRLLIYSTSNLASGIPARFSGSGSGTFYTLTISSVEPEDAAVYYCHQWSSYPWTFGGGTKLEIKR
3. ANTI-HUMAN ENTPD2 MAB6 (antibody, human IgG1, kappa, V domains shown, humanized and optimized from mAb16; human IgG1, kappa; also called Anti-ENTPD2 mAb6) VH: QVQLQESGPGLVKPSQTLSLTCTVSGYSITSGYYWNWIRQHPGKGLEWMGYISYDADNNYNPSLKNRITISRDTSKNQFSLKLSSVTAADTAVYYCAGGYYRYGLGSYSGSYYYVMDYWGQGTTVTVSS VL: DTQMTQSPSSLSVSVGDRATITCKASQSVDYEGHSYMNWYQQKPGKAPKLLIYAASNLESGVPSRFSGSGSGTDFTLTISSVQPEDFATYYCQQSNEDPPTFGGGTKLEIKR
4. ANTI-HUMAN ENTPD2 MAB9 (antibody, human IgG1, lambda, V domains shown, also called Anti-ENTPD2 mAb9) VH: QVQLVQSGAEVKKPGSSVKVSCKASGGTFDSYAVSWVRQAPGQGLEWMGRIVPWLGHTQYAQKFQGRVTITADESTSTAYMELSSLRSEDTAVYYCARESPGYRYSFDVWDQGTLVTVSS VL: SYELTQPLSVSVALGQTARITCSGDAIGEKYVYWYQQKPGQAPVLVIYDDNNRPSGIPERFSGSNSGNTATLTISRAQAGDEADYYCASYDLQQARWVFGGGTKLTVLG

Marked response:
1. 7.97
2. 8.66
3. 7.45
4. 7.68
